- Test system: OVCAR-5 ovarian
- assayMethodText: NCI tumour cell line growth inhibition, 48 h
Please go through the items and note down their TGI.

What does the data say about its TGI? Entry: C[C@@H]1CC[C@H]2[C@H](C)C(OC3O[C@@H]4O[C@@]5(C)CC[C@H]6[C@H](C)CC[C@@H]([C@@H]3C)[C@@]46O5)O[C@@H]3O[C@@]4(C)CC[C@@H]1[C@]32O4 (stereo not given in full) > 100 µM

Which TGI reading was recorded for the compound CCOP(=O)(O)C(Nc1ccc(N=Nc2ccccc2)cc1)c1cccc(C(Nc2ccc(N=Nc3ccccc3)cc2)P(=O)(O)OCC)c1 (stereo not given) ? > 100 µM

// lookup TGI for COc1cc2cc(C(=O)N3CC(CCl)c4ccc([N+](C)(C)Cc5ccccc5[N+](=O)[O-])cc43)[nH]c2c(OC)c1OC (stereo not given) > 31.3 µM

I have this compound here, CC1OC(OC2C(O)C(O)C(O)C(O)C2O)C(N)CC1N=C(N)C(=O)O (stereo not given) , and I need its recorded TGI. > 100 µM

Need TGI, item Cc1ccc(S(=O)C(C)C(Cl)c2ccccc2)cc1 (stereo not given) > 100 µM

Consider the compound C[C@@H]1CCc2ncc(F)cc2[C@H]2CCCN2c2ccn3ncc(c3n2)C(=O)N1 and give its measured TGI. > 100 µM

Look at this compound and give its reported TGI. O=[N+]([O-])/C=C/c1ccc(Cl)cc1[N+](=O)[O-] 14.9 µM

Param item = Cc1cc(-c2nc3c(F)cccc3s2)ccc1N ; retrieve measured TGI. 76.2 µM

So what's the measured TGI for this one? O=C(Cc1nc2ccccc2[nH]c1=O)c1c[nH]c2ccccc12 57.1 µM

Requested field: TGI. Item: C=CCN1CCC(c2cc(C(=O)OCC)[nH]c2-c2cc(C)no2)C1=O (stereo not given) > 100 µM

Which TGI reading was recorded for the compound CC(=O)Oc1cc2cnc3c4cc(OC(C)=O)c(OC(C)=O)cc4ccc3c2cc1OC(C)=O ? > 100 µM

Would you kindly share the measured TGI for CC(C)OP(=O)(O)c1ncc(-c2ccc(C(F)(F)F)cc2)c(NC2CCCCCC2)n1 ? > 100 µM

I am curious: what TGI value has been reported for CSc1nc(=O)cnn1C ? > 100 µM

I have this compound here, Nc1ccccc1C(=O)N=Nc1c(O)[nH]c2ccccc12 , and I need its recorded TGI. > 100 µM

Return reported TGI; argument: CCCc1cc(OC(=O)c2c(O)cc(OC)cc2CCC)cc(O)c1C(=O)O > 100 µM

Item under review: Cn1nnc2c3c(N(CCO)CCO)ccnc3ccc21 . Reported TGI? > 100 µM

What value of measured TGI is listed for COc1cc(-c2nn(-c3cccc(NC(=O)CCNc4ccc(N5CCOCC5)cc4)c3)cc2-c2ccncc2)ccc1Cl ? > 100 µM

Item under review: COC(=O)C(=O)C(C(=O)C(=O)Nc1ccc(C)cc1C)c1nc2ccc(Cl)cc2[nH]c1=O (stereo not given) . Reported TGI? > 100 µM

So what does the record say about TGI for CCCCCCCCCCCCCCCCNC(=O)/C(=C\c1ccc(Cl)c(Cl)c1)NC(=O)c1ccccc1 ? > 100 µM

Please report the recorded TGI for COc1cc(OC)c2c(=O)c3cccc(C)c3n(C)c2c1 . > 100 µM

----------
- System: MDA-MB-435
measuredProperty: GI50

Which measured GI50 value corresponds to CC(O)[C@H](NC(=O)N[C@@H](CC(N)=O)c1nc(N2CCNCC2)no1)C(=O)O (stereo partly drawn) ? > 100000 nM

# input molecule: Nn1c(-c2ccc(Cl)cc2)nc2c(-c3ccc(Cl)cc3)nc3ccc(Cl)cc3c2c1=O ; wanted: its GI50 > 100000 nM

# lookup: GI50 of CC1(C)C2CCC13C(=O)C1OC3(C2)C2C(=O)c3c(ccc4c3ccc3ccccc34)C(=O)C12 (stereo not drawn) > 62200 nM

# query: GI50 of entry NC(=O)/C(=C/n1cnc(-c2cc(C(F)(F)F)cc(C(F)(F)F)c2)n1)c1cncnc1 237 nM

Record request: GI50 value, item COc1ccc(/C=C/C(=O)c2cc3c(N)c(C(=O)Nc4ccc(OC)cc4)sc3nc2C)cc1 18.9 nM

Can you share its GI50? I mean this molecule: CN1CC[C@H](c2c(O)cc(O)c3c(=O)cc(-c4ccccc4Cl)oc23)[C@H](O)C1 71.2 nM

I'd like to know its GI50. The molecule in question is COc1ccc(C(O)c2cc3c(N)c(C(=O)Nc4cccc(Br)c4C)sc3nc2C)cc1 (stereo not drawn) 66.5 nM

Given the entry C#C[C@]1(O)CC[C@H]2[C@@H]3CC=C4c5nc(N)sc5CC[C@]4(C)[C@H]3CC[C@@]21C , report its measured GI50. 2220 nM

Fill in: GI50 of O=CN1N=C(c2cccc(Nc3ccnc4cc(Cl)ccc34)c2)CC1c1ccc(Cl)cc1 (stereo not drawn) is ___ 293 nM

I'd like to know its GI50. The molecule in question is CN(C)c1ccc(C(O)C2=CC(=O)c3ccccc3C2=O)cc1 (stereo not drawn) 5940 nM

Param item = Cc1cc(NN=C(c2ccc(O)cc2)c2ccc(O)cc2)c([N+](=O)[O-])cc1[N+](=O)[O-] ; retrieve measured GI50. 3460 nM

Data request, read-out GI50, for C=CC(=O)Nc1cc2c(Nc3ccc(F)c(Cl)c3)ncnc2cc1C#CC(C)(C)N1CCN(C)CC1 1500 nM

// lookup GI50 for COc1cc(-c2nn(-c3cccc(NC(=O)CCNc4ccc(N5CCOCC5)cc4)c3)cc2-c2ccncc2)ccc1Cl 2410 nM

----------
- System: MOLT-4 leukemia
- assayMethodText: NCI tumour cell line growth inhibition, 48 h
Record Met whenever TGI is at 7 µM or higher; record Not met when lower.

Is TGI for O=C1NC(N/N=C\c2ccccc2)=N/C1=C/c1ccccc1 at or above 7 µM? Met

Please tell me: is the compound CCc1ccc2c(c1)N(CCO)C1=C(C(=O)OC1)C2c1cc(OC)c(OC)c(OC)c1 (stereo not drawn) at or over 7 µM in terms of TGI? Met

Tell me whether TGI is at least 7 µM here: Cc1ccc(S(=O)C(C)C(Cl)c2ccccc2)cc1 (stereo not drawn) Met

Could you tell me if the measured TGI of O=C(O)CSc1n[nH]c(-c2ccco2)n1 reaches 7 µM or more? Met

Is reported TGI greater than or equal to 7 µM here: COc1cc([C@@H]2c3cc4c(cc3[C@@H](NCc3cccc(C#N)c3)C3COC(=O)[C@@H]32)OCO4)cc(OC)c1O (stereo partly drawn) Not met

Tell me whether TGI is at least 7 µM here: N#C/C(=C(/O)CCl)c1nc2ccccc2o1 Met

Threshold query (TGI >= 7 µM) on O=C1OC(=O)C([Se]c2ccccc2)=C1[Se]c1ccccc1 Met

Entry COC(=O)/C=C\C(C#N)(C#N)N=Cc1ccc(OC)cc1 : is its TGI no less than 7 µM? Not met

Item CN=c1sc2nc(C#N)c(C#N)nc2n1C with TGI of 7 µM or above? Met

Please check the record COc1cc([C@@H]2c3cc4c(cc3[C@@H](Nc3ccc(Cl)cc3C(=O)c3ccccc3)[C@H]3COC(=O)[C@H]23)OCO4)cc(OC)c1OC and state if its TGI is at or above 7 µM. Met

Determine whether this compound has TGI no lower than 7 µM: COc1ccc(/C=C\c2cc(OC)c(OC)c(OC)c2)cc1 Not met

Does O=C1C(=O)C2(CC1S(=O)(=O)c1ccccc1)c1ccccc1-c1ccccc12 (stereo not drawn) have a reported TGI of at least 7 µM? Met

----------
Provide the recorded TGI for the entries that follow.
- System: MALME-3M melanoma
- assayMethodText: NCI tumour cell line growth inhibition, 48 h

Please report the recorded TGI for COc1cc(N(C)C)c(OC)cc1C=C1C=CC=C1 . > 100 µM

Which TGI value belongs to C=CC(=O)Nc1cc2c(Nc3ccc(F)c(Cl)c3)ncnc2cc1C#CC(C)(C)N1CCN(C)CC1 ? 5.05 µM

Requested read-out: TGI. Entry: CCCCCCCCC(O)c1ccc(/C=C\C(O)CCCC(=O)O)s1 (centres undefined) > 100 µM

Which TGI reading was recorded for the compound Cc1ccc(-c2cc(-c3ccc(Cl)cc3)nc(/N=C3\C(=O)N(CN(C)C)c4ccccc43)n2)cc1 ? > 100 µM

What measured TGI goes with CCOC(=O)CCC(NC(=O)c1ccc(NC(OC)c2nc3cc(C(F)(F)F)ccc3nc2-c2ccccc2)cc1)C(=O)OCC (centres undefined) ? 31.3 µM

Fill in the blank: the reported TGI of COc1cc(NC2CCCCC2O)c2nc(-c3ccc(Cl)cc3)ccc2c1 (centres undefined) is ____. 28 µM

Data request, read-out TGI, for CC(C)OP(=O)(OC(C)C)C(C)(C)O > 100 µM

// lookup TGI for O=P(NCCCO)(OCc1ccccc1)N(CCCl)CCCl (centres undefined) > 100 µM

Fill blank: measured TGI of the compound CCCNCCCCC(NC(C)=O)C(=O)NCc1ccccc1 (centres undefined) is ____. > 100 µM

I'd like to know its TGI. The compound in question is Cc1c(/C=N/NC(=S)N2CCCCC2)c(=O)n(-c2ccccc2)n1C > 100 µM

What value of measured TGI is listed for CN1CCc2ccccc2C(C(=O)c2ccc3c(c2)OCO3)C1=O (centres undefined) ? > 100 µM

Given the entry COc1ccc(C2NC(=S)NC3=C2CCOc2c3ccc3ccccc23)cc1 (centres undefined) , report its measured TGI. > 100 µM

State the recorded TGI for this entry: COc1ccc2c(c1)C(=O)c1c-2c(OCCN(C)C)nc2cc(OC)c(OC)cc12 28.3 µM

Look up TGI for this compound: COc1ccc(-c2c(N)noc2-c2cc(OC)c3c(c2)OCCO3)cc1 > 100 µM

Give the measured TGI of COC(=O)c1c(O)ccc2c1c1cc3ccccc3c(O)c1n2CCc1ccc(OC)c(OC)c1 . > 100 µM

I am curious: what TGI value has been reported for O=C1C(=O)C2(CC1S(=O)(=O)c1ccccc1)c1ccccc1-c1ccccc12 (centres undefined) ? > 10 µM

May I ask what TGI has been recorded for COc1cc(C2S/C(=C/c3ccccc3)C(=O)N2c2cccc(NC(C)=O)c2)cc(OC)c1OC (centres undefined) ? 98.3 µM

Can you look up the measured TGI of Cc1c(-c2ccccc2)[nH]c2cn[nH]c(=O)c12 for me? > 100 µM

So what does the record say about TGI for COc1ccc(Br)c(C(=O)N2CCc3ccccc32)c1N ? > 100 µM

What does the record list as TGI for C[C@@H]1CC[C@H]2[C@H](C)C(OC3O[C@@H]4O[C@@]5(C)CC[C@H]6[C@H](C)CC[C@@H]([C@@H]3C)[C@@]46O5)O[C@@H]3O[C@@]4(C)CC[C@@H]1[C@]32O4 (some centres undefined) ? > 100 µM

I'd like to know its TGI. The compound in question is O=NNc1ccc(S(=O)(=O)c2ccc3ccccc3c2)cn1 > 100 µM

Look at this compound and give its reported TGI. O=c1cccc(Cl)[nH]1 > 100 µM

Any idea what TGI was measured for COc1ccc(C2=Nn3c(nnc3-n3nc(C)cc3C)SC2)cc1 ? 70.5 µM

// lookup TGI for CN=c1sc2nc(C#N)c(C#N)nc2n1C 36.4 µM

Please report the recorded TGI for OCCN(CO)CO . > 100 µM

Report TGI for NC1=NCN(C2OC(CO)C(O)C2O)C(=O)N1 (centres undefined) please. 128 µM

Param item = COc1ccccc1-c1c(C#N)c(N)[nH]c(=S)c1C#N ; retrieve measured TGI. > 100 µM

Return reported TGI; argument: CC(C)OP(=O)(O)c1ncc(-c2ccc(C(F)(F)F)cc2)c(NC2CCCCCC2)n1 > 100 µM

Value lookup for TGI; key = CC(=O)/C(=C\I)c1ccccc1 3.33 µM

Tell me the measured TGI of O=[N+]([O-])/C=C/c1ccc(Cl)cc1[N+](=O)[O-] , please. 16.7 µM

Endpoint output: TGI of CO/C(=N\N=C\c1ccc(Cl)c(Cl)c1)c1ccncc1 . Value? > 10 µM

Request the reported TGI associated with CCOc1ccc(NC(=O)C(=O)Nn2c(N)nnc2N)cc1 > 100 µM

What value of measured TGI is listed for Cn1nnc2c3c(N(CCO)CCO)ccnc3ccc21 ? > 100 µM

Consider the compound COc1ccc(/C=N/NS(=O)(=O)c2ccccc2)cc1 and give its measured TGI. > 100 µM

src = PubChem BioAssay (NCI)
